These measurements were taken from ChEMBL document CHEMBL1133401.

# TGT: Adenosine receptor A2a (Rattus norvegicus, UniProt P30543)
# Sequence (P30543 whole entry): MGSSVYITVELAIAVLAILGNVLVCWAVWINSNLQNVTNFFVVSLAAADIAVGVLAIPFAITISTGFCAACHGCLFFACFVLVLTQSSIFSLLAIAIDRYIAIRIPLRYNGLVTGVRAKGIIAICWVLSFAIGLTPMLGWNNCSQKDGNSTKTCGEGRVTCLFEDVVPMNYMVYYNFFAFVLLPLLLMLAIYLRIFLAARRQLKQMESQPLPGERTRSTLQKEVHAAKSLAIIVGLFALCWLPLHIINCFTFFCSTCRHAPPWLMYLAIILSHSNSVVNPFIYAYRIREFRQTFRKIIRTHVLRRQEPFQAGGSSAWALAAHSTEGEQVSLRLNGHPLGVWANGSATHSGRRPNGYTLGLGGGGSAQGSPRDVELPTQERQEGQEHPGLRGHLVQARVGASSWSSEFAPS
# ASSAY COMMENT: Agonistic activity against Adenosine A2A receptor on rat striatal membranes
# Format: functional, Striatum, Membrane
EXPERIMENTAL READOUT: Ki (µM)
Answer format: numeric, µM implied, no suffix.

Entry OC[C@H]1O[C@@H](n2cnc3c(NCc4cccc5ccccc45)nc(NC4CCCCC4)nc32)[C@H](O)[C@@H]1O , tested on Adenosine receptor A2a (Rattus norvegicus, UniProt P30543), has a reported Ki of 10.3

----------
# TGT: Adenosine receptor A1 (Cavia porcellus, UniProt P47745)
# Sequence (P47745 whole entry): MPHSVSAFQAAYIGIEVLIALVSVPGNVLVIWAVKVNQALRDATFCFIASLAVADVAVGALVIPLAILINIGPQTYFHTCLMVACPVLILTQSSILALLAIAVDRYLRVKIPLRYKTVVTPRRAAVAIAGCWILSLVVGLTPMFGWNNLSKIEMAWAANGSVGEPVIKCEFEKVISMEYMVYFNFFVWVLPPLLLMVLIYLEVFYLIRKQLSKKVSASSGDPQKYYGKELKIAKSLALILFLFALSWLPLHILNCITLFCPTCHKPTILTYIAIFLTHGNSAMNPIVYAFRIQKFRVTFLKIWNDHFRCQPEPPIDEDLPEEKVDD
# ASSAY COMMENT: Ex vivo inhibition of guinea pig ileum twitch via Adenosine A1 receptor.
# Format: tissue-based
Consider the following compounds; for each one, report its ECR.
Give your answer as a number; write no unit.

Kindly note the recorded ECR for Nc1nc(N[C@H]2CCC[C@@H]2O)nc2c1ncn2[C@@H]1O[C@H](CO)[C@@H](O)[C@H]1O , which is 84

Reported ECR ( CCNC(=O)[C@H]1O[C@@H](n2cnc3c(NCC(c4ccccc4)c4ccccc4)nc(NCCc4c[nH]cn4)nc32)[C@H](O)[C@@H]1O ) = 672

Short answer for OC[C@H]1O[C@@H](n2cnc3c(NC4CCCC4)nc(Cl)nc32)[C@H](O)[C@@H]1O : ECR was 1

The compound identified as Nc1nc(NC2CCCC2)nc2c1ncn2[C@@H]1O[C@H](CO)[C@@H](O)[C@H]1O registered its ECR at 549

The recorded ECR for CCNC(=O)[C@H]1O[C@@H](n2cnc3c(NCC(c4ccccc4)c4ccccc4)nc(NCCN4CCCCC4)nc32)[C@H](O)[C@@H]1O.O=C(O)C(F)(F)F is 263

Entry CCNC(=O)[C@H]1O[C@@H](n2cnc3c(N)nc(NC4CCCC4)nc32)[C@H](O)[C@@H]1O ; ECR = 80
